Entry source: ChEMBL document CHEMBL1122390

Parameter: pIC50. Scope: all listed entries.
target: GABA-A receptor; anion channel; experiment: Binding affinity measured by [3H]diazepam binding assay in rat
# pIC50: negative log10 of molar concentration; output just the value

Example compounds with recorded pIC50:
Compound	pIC50
Cc1ncc2c(n1)-c1ccc(Cl)cc1C(c1ccccc1F)=NC2	8.51
CN1CCN(c2ncc3c(n2)-c2ccc(Cl)cc2C(c2ccccc2F)=NC3)CC1	8.15
Cc1ncc2c(n1)-c1ccccc1C(c1ccccc1)=NC2	7.27
Cc1ncc2c(n1)-c1ccc(Cl)cc1C(c1ccccc1Cl)=NC2	8.04
Nc1ncc2c(n1)-c1ccc(Cl)cc1C(c1ccccc1F)=[N+]([O-])C2	7.42

I'd like to know its pIC50. The compound in question is Cc1ncc2c(n1)-c1ccc(Cl)cc1C(c1ccccc1)=NC2
7.77

Given the entry Nc1ncc2c(n1)-c1ccc(Cl)cc1C(c1ccccc1)=NC2 , report its measured pIC50.
7.77

Which pIC50 is listed for Nc1ncc2c(n1)-c1ccc(Cl)cc1C(c1ccccc1F)=NC2 ?
8.55

Could you tell me which pIC50 is on file for Cc1ncc2c(n1)-c1ccc(Cl)cc1C(c1ccccc1Cl)NC2 (stereo not given) ?
7.52

Look up pIC50 for this compound: COc1ncc2c(n1)-c1ccc(Cl)cc1C(c1ccccc1F)=NC2
8.46

Sample O=C(O)Cc1ncc2c(n1)-c1ccc(Cl)cc1C(c1ccccc1F)=NC2 — what was its pIC50?
8.02

So what does the record say about pIC50 for Clc1ccc2c(c1)C(c1ccccc1Cl)=NCc1cncnc1-2 ?
8.55

I have this compound here, Cc1ncc2c(n1)-c1ccc(Cl)cc1C(c1ccccc1Cl)=[N+]([O-])C2 , and I need its recorded pIC50.
7.82

For the compound Fc1ccccc1C1=NCc2cncnc2-c2ccc(Cl)cc21 , what pIC50 is on record?
8.47

Which pIC50 value belongs to CC(C)c1ncc2c(n1)-c1ccc(Cl)cc1C(c1ccccc1Cl)=NC2 ?
7.60
